Molecular target: EGFR L858R (Homo sapiens (Human), UniProt P00533, L858R)
Sequence (P00533 25-1210 L858R): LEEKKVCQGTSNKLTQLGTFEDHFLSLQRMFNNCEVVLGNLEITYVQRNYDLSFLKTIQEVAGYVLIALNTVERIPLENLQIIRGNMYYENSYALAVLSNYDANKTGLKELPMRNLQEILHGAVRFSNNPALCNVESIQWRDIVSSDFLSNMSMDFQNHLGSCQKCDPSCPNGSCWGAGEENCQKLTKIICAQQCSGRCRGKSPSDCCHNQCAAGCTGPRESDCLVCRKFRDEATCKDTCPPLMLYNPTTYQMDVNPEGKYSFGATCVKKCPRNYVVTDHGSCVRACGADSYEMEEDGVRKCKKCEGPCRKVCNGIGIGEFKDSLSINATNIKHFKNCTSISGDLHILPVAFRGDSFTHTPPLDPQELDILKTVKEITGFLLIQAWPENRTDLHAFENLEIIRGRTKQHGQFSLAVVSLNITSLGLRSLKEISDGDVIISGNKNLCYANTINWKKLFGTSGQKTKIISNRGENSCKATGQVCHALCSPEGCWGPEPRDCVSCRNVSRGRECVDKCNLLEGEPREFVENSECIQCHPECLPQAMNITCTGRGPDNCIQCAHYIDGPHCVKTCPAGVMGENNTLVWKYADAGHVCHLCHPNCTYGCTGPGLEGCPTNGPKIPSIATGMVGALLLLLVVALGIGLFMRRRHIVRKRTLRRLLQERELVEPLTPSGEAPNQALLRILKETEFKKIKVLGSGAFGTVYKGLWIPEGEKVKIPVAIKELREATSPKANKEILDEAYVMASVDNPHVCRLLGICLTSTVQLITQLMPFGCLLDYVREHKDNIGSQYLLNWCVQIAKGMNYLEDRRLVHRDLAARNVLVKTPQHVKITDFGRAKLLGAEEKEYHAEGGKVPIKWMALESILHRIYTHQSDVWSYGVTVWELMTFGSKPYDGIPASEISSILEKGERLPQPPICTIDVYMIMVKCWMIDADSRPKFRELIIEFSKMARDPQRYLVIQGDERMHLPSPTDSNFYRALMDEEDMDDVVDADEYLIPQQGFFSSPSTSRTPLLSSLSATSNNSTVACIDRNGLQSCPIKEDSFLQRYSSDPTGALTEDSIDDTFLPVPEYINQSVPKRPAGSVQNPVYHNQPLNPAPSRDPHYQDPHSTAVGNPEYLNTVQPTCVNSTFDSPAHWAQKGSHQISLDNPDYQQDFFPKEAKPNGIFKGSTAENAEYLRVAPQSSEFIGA
Experiment: Biochemical EGFR inhibition assay, EGFR L858R
Conditions: Caliper mobility shift; 1.0 mM ATP or ATP Km; read-out: Enz EGFR_L858R IC50
Assay Metric: pIC50
Field pIC50 (float): negative decimal logarithm of the concentration in molar.

(Q) Consider the molecule COc1cc2ncnc(-c3cn(C)nc3-c3ccccc3)c2cc1NC(=O)c1cnc(C2CC2)s1 and give its measured pIC50.
(A) 8.82

(Q) Please give the result for COc1cc2ncnc(-c3cn(C)nc3-c3ccccc3)c2cc1NC(=O)c1cc2n(n1)CCCC2 too.
(A) 7.85

(Q) Please give the result for COc1cc2ncnc(-c3cn(C)nc3-c3ccccc3)c2nc1NC(=O)[C@@H]1C[C@H]2C[C@H]2N1C too.
(A) 8.74

(Q) Please give the result for COc1cc2ncnc(-c3cn(C)nc3-c3ccccc3)c2cc1NC(=O)c1cncc(F)c1 too.
(A) 7.98

(Q) Please give the result for CCn1cc(-c2ncnc3cc(OC)c(NC(=O)[C@@]45COC[C@@H]4C5)cc23)c(-c2ccccc2F)n1 (mixture of isomers) too.
(A) 8.96

(Q) Please give the result for COc1cc2ncnc(-c3cn(C)nc3-c3ccccc3)c2cc1OC(=O)N1[C@@H](C)COC[C@@H]1C too.
(A) 8.21

(Q) Please give the result for COc1cc2ncnc(-c3cn(C)nc3-c3ccccc3)c2cc1NC(=O)C1CCN1 (stereo not drawn) too.
(A) 8.55

(Q) Please give the result for COc1cc2ncnc(-c3cn(C)nc3-c3ccccc3)c2nc1NC(=O)c1ccccc1F too.
(A) 8.80

(Q) Please give the result for COc1cc2ncnc(-c3cn(C)nc3-c3ccccc3)c2nc1O[C@H](C)c1nnc(C)s1 (single isomer, unassigned) too.
(A) 7.91
